Every entry's value here was drawn from PubChem BioAssay (Tox21).

molecular target: Thyrotropin receptor (Homo sapiens) (UniProt P16473); assay: qHTS assay to identify small molecule antagonists of the thyroid stimulating hormone receptor (TSHR) signaling pathway (AID 1259385); details: TSHR-HEK293 cAMP HTRF, TSH-stimulated antagonist mode; series mostly up to 92.4 µM; also: % is scaled to controls: 0 for no effect and ±100 for the full control effect; nearly all actives have a fitted effect of over 20% in size
Sequence (P16473 whole entry, looked up): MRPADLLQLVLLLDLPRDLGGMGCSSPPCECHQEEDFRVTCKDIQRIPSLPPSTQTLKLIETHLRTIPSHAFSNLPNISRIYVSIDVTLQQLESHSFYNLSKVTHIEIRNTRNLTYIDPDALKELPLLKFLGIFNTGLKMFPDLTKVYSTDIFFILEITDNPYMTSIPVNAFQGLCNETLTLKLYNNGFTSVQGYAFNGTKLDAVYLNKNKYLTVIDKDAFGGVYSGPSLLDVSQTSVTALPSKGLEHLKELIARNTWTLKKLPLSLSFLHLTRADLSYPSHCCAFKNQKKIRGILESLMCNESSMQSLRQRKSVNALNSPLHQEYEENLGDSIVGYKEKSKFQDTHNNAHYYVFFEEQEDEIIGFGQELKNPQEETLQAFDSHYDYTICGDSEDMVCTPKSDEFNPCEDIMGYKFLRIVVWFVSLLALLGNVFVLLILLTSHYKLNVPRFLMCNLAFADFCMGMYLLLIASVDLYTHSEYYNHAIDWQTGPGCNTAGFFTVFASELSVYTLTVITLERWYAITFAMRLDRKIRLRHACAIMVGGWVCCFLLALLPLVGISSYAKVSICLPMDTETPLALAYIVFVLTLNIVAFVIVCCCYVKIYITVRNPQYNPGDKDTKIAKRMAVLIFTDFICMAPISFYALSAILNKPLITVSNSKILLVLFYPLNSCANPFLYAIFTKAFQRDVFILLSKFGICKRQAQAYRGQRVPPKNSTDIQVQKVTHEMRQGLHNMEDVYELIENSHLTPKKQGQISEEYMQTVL
Inconclusive results are not listed. The source made the active and inactive calls. Calls follow the shape of the full dose curve.
endpoint name: activity change, negative = inhibition

[[record]]
compound = "O=C(O)CCSSCCC(=O)O"
endpoint_name = "activity change, negative = inhibition"
value_observed = "inactive"

[[record]]
compound = "CCCCCCCCCCCCCC"
endpoint_name = "activity change, negative = inhibition"
value_observed = "inactive"

[[record]]
compound = "CN1CCN(CC(=O)N2c3ccccc3C(=O)Nc3cccnc32)CC1"
endpoint_name = "activity change, negative = inhibition"
value_observed = "0.681% [at 8.39 µM] (inactive)"

[[record]]
compound = "COc1cc(C(=S)N2CCOCC2)cc(OC)c1OC"
endpoint_name = "activity change, negative = inhibition"
value_observed = "inactive"

[[record]]
compound = "CCNC(=O)C1CC(C)CCC1C(C)C (stereo unspecified)"
endpoint_name = "activity change, negative = inhibition"
value_observed = "inactive"

[[record]]
compound = "CCN(CC)CC(=O)Nc1c(C)cccc1C"
endpoint_name = "activity change, negative = inhibition"
value_observed = "inactive"


* * *

experiment: qHTS assay to test for compound auto fluorescence at 460 nm (blue) in HepG2 cells (AID 720687); settings: autofluorescence 405/460 nm, 1 h; series mostly up to 91.3 µM; also: % is scaled to controls: 0 for no effect and ±100 for the full control effect
Activity calls are given as the source filed them. Calls follow the shape of the dose curve; as a rule, active = well fitted curve in the direction sought with a large enough effect in the repeat runs; inconclusive = weak or mixed curves; inactive = flat fitted curve, though single readings scatter.
endpoint name: fluorescence, % of fluorescent control

[[record]]
compound = "CCCOC(=O)C(C)O (stereo unspecified)"
endpoint_name = "fluorescence, % of fluorescent control"
value_observed = "inactive"

[[record]]
compound = "O=S(=O)(O)CCN1CCN(CCO)CC1"
endpoint_name = "fluorescence, % of fluorescent control"
value_observed = "inactive"

[[record]]
compound = "Nc1ccc([N+](=O)[O-])c(N)c1"
endpoint_name = "fluorescence, % of fluorescent control"
value_observed = "inactive"

[[record]]
compound = "Cc1ccsc1/C=C/C1=NCCCN1C"
endpoint_name = "fluorescence, % of fluorescent control"
value_observed = "0.164% [at 18.6 µM] (inactive)"

[[record]]
compound = "OCCC(F)(F)C(F)(F)C(F)(F)C(F)(F)C(F)(F)C(F)(F)C(F)(F)C(F)(F)F"
endpoint_name = "fluorescence, % of fluorescent control"
value_observed = "inactive"

[[record]]
compound = "C[C@H](N)[C@H](O)c1cccc(O)c1"
endpoint_name = "fluorescence, % of fluorescent control"
value_observed = "1.56% [at 18.6 µM] (inactive)"


* * *

test: qHTS RealTime-Glo MT Cell Viability Assay in HEK293 cells - 40 hour (AID 1224874); settings: RealTime-Glo luminescence; hits give low values; also: % is scaled to controls: 0 for no effect and ±100 for the full control effect; nearly all actives have a fitted effect of over 50% in size
Records with an inconclusive call do not appear.
endpoint name: max response (%)

[[record]]
molecule = "N[C@@H](CCC(=O)N[C@@H](CS)C(=O)NCC(=O)O)C(=O)O"
endpoint_name = "max response"
units_text = "%"
value_observed = 3.69

[[record]]
molecule = "COc1cc(N)ccc1C"
endpoint_name = "max response"
units_text = "%"
value_observed = 8.05

[[record]]
molecule = "O=C(O)c1cc(Br)c(O)c(Br)c1"
endpoint_name = "max response"
units_text = "%"
value_observed = -4.67

[[record]]
molecule = "CC(=O)OC(C)OC(=O)C(C)c1ccc(-c2ccccc2)c(F)c1 (stereo unspecified)"
endpoint_name = "max response"
units_text = "%"
value_observed = 3.38

[[record]]
molecule = "O=C(O)Cc1cn(-c2ccccc2)nc1-c1ccc(Cl)cc1"
endpoint_name = "max response"
units_text = "%"
value_observed = -3.35

[[record]]
molecule = "CC(C)N(c1ccccc1)C(C)C"
endpoint_name = "max response"
units_text = "%"
value_observed = 4.56

[[record]]
molecule = "COCCOCCOCCOCCO"
endpoint_name = "max response"
units_text = "%"
value_observed = 4.56

[[record]]
molecule = "CC(C)OC(=O)CCCCC(=O)OC(C)C"
endpoint_name = "max response"
units_text = "%"
value_observed = 13.3

[[record]]
molecule = "C=COCCOCCOCCOC=C"
endpoint_name = "max response"
units_text = "%"
value_observed = 1.1

[[record]]
molecule = "Cc1ccc(S(=O)(=O)O)c(C)c1"
endpoint_name = "max response"
units_text = "%"
value_observed = 3.15

[[record]]
molecule = "CC(C)(C)c1nnc(NS(=O)(=O)c2ccc(N)cc2)s1"
endpoint_name = "max response"
units_text = "%"
value_observed = 2.09

[[record]]
molecule = "CCCCOC(=O)c1ccccc1"
endpoint_name = "max response"
units_text = "%"
value_observed = 4.16

[[record]]
molecule = "OCCCCC(O)CO (stereo unspecified)"
endpoint_name = "max response"
units_text = "%"
value_observed = 5.78

[[record]]
molecule = "CCCC/C=C/C=C\\C=O"
endpoint_name = "max response"
units_text = "%"
value_observed = 0.84

[[record]]
molecule = "CC(C)C[C@H](NC(=O)CNC(=O)[C@H](Cc1ccc(O)cc1)NC(=O)[C@H](CO)NC(=O)[C@H](Cc1c[nH]c2ccccc12)NC(=O)[C@H](Cc1cnc[nH]1)NC(=O)[C@@H]1CCC(=O)N1)C(=O)N[C@@H](CCCN=C(N)N)C(=O)N1CCC[C@H]1C(=O)NCC(N)=O (stereo in doubt)"
endpoint_name = "max response"
units_text = "%"
value_observed = 12.8

[[record]]
molecule = "C=CCCCCCCCCCCCC"
endpoint_name = "max response"
units_text = "%"
value_observed = -0.0097

[[record]]
molecule = "Oc1ccccc1-c1nnco1"
endpoint_name = "max response"
units_text = "%"
value_observed = 2.75

[[record]]
molecule = "NCCS"
endpoint_name = "max response"
units_text = "%"
value_observed = 7.37

[[record]]
molecule = "c1ccc2c(c1)ccc1c3ccccc3ccc21"
endpoint_name = "max response"
units_text = "%"
value_observed = 6.22

[[record]]
molecule = "Nc1ccc([N+](=O)[O-])c(N)c1"
endpoint_name = "max response"
units_text = "%"
value_observed = -10.3

[[record]]
molecule = "CC(C)CC(C)CC(C)CC(C)COC(=O)c1ccccc1C(=O)OCC(C)CC(C)CC(C)CC(C)C (stereo unspecified)"
endpoint_name = "max response"
units_text = "%"
value_observed = 4.21

[[record]]
molecule = "CC(S)C(=O)NCC(=O)O (stereo unspecified)"
endpoint_name = "max response"
units_text = "%"
value_observed = 11.2

[[record]]
molecule = "O=C(OCc1ccccc1)C(=O)OCc1ccccc1"
endpoint_name = "max response"
units_text = "%"
value_observed = 1.62

[[record]]
molecule = "CN(C)c1ccc(C=O)cc1"
endpoint_name = "max response"
units_text = "%"
value_observed = 14.8

[[record]]
molecule = "CCCOC(OCCC)OCCC"
endpoint_name = "max response"
units_text = "%"
value_observed = 6.14

[[record]]
molecule = "O=S(O)(O)=S"
endpoint_name = "max response"
units_text = "%"
value_observed = 0.994

[[record]]
molecule = "Cc1ccc(C=O)cc1C"
endpoint_name = "max response"
units_text = "%"
value_observed = 2.17

[[record]]
molecule = "O=C(O)C(=O)Cc1ccccc1"
endpoint_name = "max response"
units_text = "%"
value_observed = 14.4

[[record]]
molecule = "Cc1cc2cc3c(C)cc(=O)oc3c(C)c2o1"
endpoint_name = "max response"
units_text = "%"
value_observed = -18.2

[[record]]
molecule = "ClCCCl"
endpoint_name = "max response"
units_text = "%"
value_observed = -0.252

[[record]]
molecule = "CCNC(=O)C1CC(C)CCC1C(C)C (stereo unspecified)"
endpoint_name = "max response"
units_text = "%"
value_observed = 2.62


* * *

assay: qHTS assay for identifying genotoxic compounds that show differential cytotoxicity against isogenic chicken DT40 cell lines with known DNA damage response pathways - Rad54/Ku70 mutant cell line (AID 743015); details: DT40 Rad54/Ku70 mutant viability, CellTiter-Glo, 40 h; series mostly up to 66.8 µM; also: % is scaled to controls: 0 for no effect and ±100 for the full control effect; nearly all actives have a fitted effect of over 60% in size
Results filed as inconclusive are left out. Activity calls are given as the source filed them. Calls come from the whole dose curve; as a rule, active = well fitted cell-killing curve with a large enough effect in the repeat runs; inconclusive = weak or mixed curves; inactive = no such curve, though single readings can be large or run the other way.
endpoint name: outcome

[[record]]
compound = "CCN(CC)CC(=O)Nc1c(C)cccc1C"
endpoint_name = "outcome"
value_observed = "inactive"

[[record]]
compound = "Nc1ccc([N+](=O)[O-])c(N)c1"
endpoint_name = "outcome"
value_observed = "inactive"

[[record]]
compound = "CN=C(NC#N)Nc1ccc(C2=NNC(=O)CC2C)cc1 (centres undefined)"
endpoint_name = "outcome"
value_observed = "inactive"

[[record]]
compound = "CC(C)OC(=O)CCCCC(=O)OC(C)C"
endpoint_name = "outcome"
value_observed = "inactive"


* * *

experiment: A CellTox Green Cytotoxicity Assay to monitor cytotoxicity in HepG2 cells - 32 hour (AID 1224883); conditions: CellTox Green fluorescence; series mostly up to 76.8 µM; also: % is scaled to controls: 0 for no effect and ±100 for the full control effect; nearly all actives have a fitted effect of over 50% in size
Results filed as inconclusive are left out. Calls of active or inactive are those of the source. The call rests on the fitted dose curve; in most records, active means well fitted activation curve with a large enough effect in the repeat runs; inconclusive means weak or mixed curves; inactive means flat fitted curve, though single readings scatter.
endpoint name: cytotoxicity increase

[[record]]
molecule = "O=C(O)C(=O)Cc1ccccc1"
endpoint_name = "cytotoxicity increase"
value_observed = "inactive"

[[record]]
molecule = "CCCN1C[C@H](CSC)C[C@@H]2c3cccc4[nH]cc(c34)C[C@H]21"
endpoint_name = "cytotoxicity increase"
value_observed = "inactive"

[[record]]
molecule = "CC(C)OC(=O)CCCCC(=O)OC(C)C"
endpoint_name = "cytotoxicity increase"
value_observed = "inactive"

[[record]]
molecule = "CCOC(=O)/C=C/c1ccccc1"
endpoint_name = "cytotoxicity increase"
value_observed = "inactive"

[[record]]
molecule = "C=C(C)C(=O)OCCNC(C)(C)C"
endpoint_name = "cytotoxicity increase"
value_observed = "inactive"

[[record]]
molecule = "CCCCCOC(=O)CCC"
endpoint_name = "cytotoxicity increase"
value_observed = "inactive"

[[record]]
molecule = "CN(C)c1ccc(C=O)cc1"
endpoint_name = "cytotoxicity increase"
value_observed = "inactive"

[[record]]
molecule = "CCn1ccc(NS(=O)(=O)c2ccc(N)cc2)nc1=O"
endpoint_name = "cytotoxicity increase"
value_observed = "inactive"

[[record]]
molecule = "Cc1ccc(C=O)cc1C"
endpoint_name = "cytotoxicity increase"
value_observed = "inactive"

[[record]]
molecule = "COc1cc(C(=S)N2CCOCC2)cc(OC)c1OC"
endpoint_name = "cytotoxicity increase"
value_observed = "inactive"

[[record]]
molecule = "CN=C(NC#N)Nc1ccc(C2=NNC(=O)CC2C)cc1 (stereo not given)"
endpoint_name = "cytotoxicity increase"
value_observed = "inactive"

[[record]]
molecule = "O=C1c2ccccc2C(=O)C1c1ccccc1"
endpoint_name = "cytotoxicity increase"
value_observed = "inactive"

[[record]]
molecule = "CC1=C(C(=O)O)N2C(=O)[C@@H](NC(=O)[C@H](N)c3ccc(O)cc3)[C@H]2SC1"
endpoint_name = "cytotoxicity increase"
value_observed = "inactive"

[[record]]
molecule = "c1ccc2nccnc2c1"
endpoint_name = "cytotoxicity increase"
value_observed = "inactive"

[[record]]
molecule = "C=C(C)C(=O)OCC(C)(C)COC(=O)C(=C)C"
endpoint_name = "cytotoxicity increase"
value_observed = "inactive"

[[record]]
molecule = "C#CC(C)N(C)C(=O)Nc1ccc(Cl)cc1 (stereo not given)"
endpoint_name = "cytotoxicity increase"
value_observed = "inactive"

[[record]]
molecule = "CC1COc2ccccc2N1 (stereo not given)"
endpoint_name = "cytotoxicity increase"
value_observed = "inactive"

[[record]]
molecule = "C=C(C)C(=O)OCc1ccccc1"
endpoint_name = "cytotoxicity increase"
value_observed = "inactive"

[[record]]
molecule = "COC(=O)c1ccccc1C(=O)c1ccc(OCCN2CCCCC2)cc1"
endpoint_name = "cytotoxicity increase"
value_observed = "inactive"

[[record]]
molecule = "C[Si](C)(C)C"
endpoint_name = "cytotoxicity increase"
value_observed = "inactive"

